measurementKind: logP
// no unit string in output, number only

>>> endpointresult("CCCCCNC(=O)NN")
-0.04
>>> endpointresult("NNC(N)=O")
-2.75
>>> endpointresult("CCN(CC)C(=O)NN")
-0.62
>>> endpointresult("CN(C)C(=O)NN")
-1.57
>>> endpointresult("CCCCNC(=O)NN")
-0.6

Lookup: Query: logP; subject: CCNC(=O)NN
Found: -1.62

Lookup: Consider the compound C=CCNC(=O)NN and give its measured logP.
Found: -1.55

Lookup: I would be grateful if you could share the reported logP for NNC(=O)NC1CCCCC1 .
Found: 0.15

Lookup: # input compound: CCCCCCNC(=O)NN ; wanted: its logP
Found: 0.46

Lookup: Endpoint output: logP of CC(C)CNC(=O)NN . Value?
Found: -0.84

Lookup: What measured logP goes with CC(C)(C)NC(=O)NN ?
Found: -0.81

Lookup: Quick one: logP of CC(C)NC(=O)NN ?
Found: -1.3

Lookup: Look up logP: CNC(=O)NN
Found: -2.2

Lookup: State the recorded logP for this entry: NNC(=O)NCc1ccccc1
Found: -0.22

Lookup: Item under review: CCCNC(=O)NN . Reported logP?
Found: -1.1
